Assay: gradient 5% acetonitrile 3 min, to 50% in 2 min, to 85% in 15 min, held 3 min, 100 µL/min
Conditions: column: Zorbax Extend-C18 2.1 x 50 mm; eluents: water / acetonitrile, 0.1% formic acid
Reported Property: RP-LC retention time (s)

Sample answers from the record:
[[record]]
molecule = "CCCS(=O)(=O)N1CCC2(CC1)CN(c1ccccc1)C2=O"
reported_property = "RP-LC retention time"
reported_value = 812

[[record]]
molecule = "O=C(NCCc1csc(C2CCN(C(=O)c3cc(F)ccc3F)CC2)n1)C1CC1"
reported_property = "RP-LC retention time"
reported_value = 699

[[record]]
molecule = "CC(C)C(=O)Nc1ccc(CCc2nc3ccc(C(=O)NC4CCCC4)cc3[nH]2)cc1"
reported_property = "RP-LC retention time"
reported_value = 650


1: CC(C)n1cnc2cc(CNC(=O)c3cccc(C#N)c3)ccc21
2: O=C(NC1CCCCC1)c1csc(-c2ccc(N3CCOCC3)nc2)n1
Q: Which numeric RP-LC retention time is bigger, that of 1 or that of 2 ? Provide the label of your selected option as the answer.
A: 2
(2: 916 s, 1: 596 s)

----------
Assay: gradient 5% acetonitrile 3 min, to 50% in 2 min, to 85% in 15 min, held 3 min, 100 µL/min
Details: column: Zorbax Extend-C18 2.1 x 50 mm; eluents: water / acetonitrile, 0.1% formic acid
Reported Property: RP-LC retention time (s)

[[record]]
compound = "O=C(Nc1cccc(C(F)(F)F)c1)C1CCCN(c2ncnc3c2nc2n3CCCCC2)C1 (centres undefined)"
reported_property = "RP-LC retention time"
units_symbol = "s"
reported_value = 958

[[record]]
compound = "Cc1ccc(CNC(=O)C2(C)CCCN(C(=O)Nc3ccc(C)cc3C)C2)cc1 (centres undefined)"
reported_property = "RP-LC retention time"
units_symbol = "s"
reported_value = 947

[[record]]
compound = "O=C(CCCc1ccccc1)NC1CCN(c2nnc3ccc(Cl)cn23)CC1"
reported_property = "RP-LC retention time"
units_symbol = "s"
reported_value = 639

[[record]]
compound = "COc1cccc(CNC(=O)C2CCN(c3nnc4c(Cl)cccn34)CC2)c1"
reported_property = "RP-LC retention time"
units_symbol = "s"
reported_value = 683

[[record]]
compound = "CN(CCc1noc(COc2ccccc2)n1)C(=O)Nc1ccc(F)cc1"
reported_property = "RP-LC retention time"
units_symbol = "s"
reported_value = 876

[[record]]
compound = "O=C(CC1CCCC1)N1CC(c2nc(-c3ccccc3)no2)C2(CCOCC2)C1 (centres undefined)"
reported_property = "RP-LC retention time"
units_symbol = "s"
reported_value = 923

[[record]]
compound = "Cc1ccc(Cn2nc3c(S(=O)(=O)N4CCN(c5ccc(F)cc5)CC4)cccn3c2=O)c(C)c1"
reported_property = "RP-LC retention time"
units_symbol = "s"
reported_value = 1080

[[record]]
compound = "Cn1c(=O)c(N2CCC(NC(=O)Nc3ccc(F)cc3F)CC2)nc2ccccc21"
reported_property = "RP-LC retention time"
units_symbol = "s"
reported_value = 888

[[record]]
compound = "Cc1nc(-c2csc(S(=O)(=O)N3CCC(C(=O)N4CCC5(CC4)OCCO5)CC3)c2)no1"
reported_property = "RP-LC retention time"
units_symbol = "s"
reported_value = 765


----------
Test: gradient 5% acetonitrile 3 min, to 50% in 2 min, to 85% in 15 min, held 3 min, 100 µL/min
Conditions: column: Zorbax Extend-C18 2.1 x 50 mm; eluents: water / acetonitrile, 0.1% formic acid
Reported Property: RP-LC retention time (s)

[[record]]
compound = "COCC1CCN(C(=O)NCc2cccc3ccccc23)CC1"
reported_property = "RP-LC retention time"
reported_value = 769


A: CCc1nn2c(CNC(=O)c3cc(C)cc(C)c3)c(-c3ccccc3)nc2s1
B: CCCc1nc2cccnc2n1C1CCN(C(=O)c2ccc(C)c(N3CCCC3=O)c2)C1 (stereo not given)
Q: Which numeric RP-LC retention time is bigger, that of A or that of B ? Provide the label of your selected option as the answer.
A: A
